Molecular target: rat pituitary cells (Rattus norvegicus, UniProt O08725)
Sequence (O08725 whole entry): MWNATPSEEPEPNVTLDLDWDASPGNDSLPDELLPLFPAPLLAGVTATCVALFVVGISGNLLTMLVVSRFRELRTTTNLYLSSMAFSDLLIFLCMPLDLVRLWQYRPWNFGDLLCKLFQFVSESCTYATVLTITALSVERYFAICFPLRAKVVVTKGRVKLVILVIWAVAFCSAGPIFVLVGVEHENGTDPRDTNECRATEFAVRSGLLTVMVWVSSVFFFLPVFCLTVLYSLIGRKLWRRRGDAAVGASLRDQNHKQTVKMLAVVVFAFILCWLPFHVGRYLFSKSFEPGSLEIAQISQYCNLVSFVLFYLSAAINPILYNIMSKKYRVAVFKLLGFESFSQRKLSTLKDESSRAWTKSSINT
Conditions: read-out: PIT Cell EC50; Table IV, formula III compounds; GH release, 15 min incubation
Non-standard residues stand in square brackets, D forms with d. Residues, ends and D or L forms follow the SMILES beside them. *: point of attachment. dNMe2Nal = CN[C@H](Cc1ccc2ccccc2c1)C(=O)O; 1Nal = N[C@@H](Cc1cccc2ccccc12)C(=O)O; d2Nal = N[C@H](Cc1ccc2ccccc2c1)C(=O)O; NHPhenethyl = c1ccc(CCN*)cc1; Inp = O=C(O)C1CCNCC1
assayEndpoint: EC50 (nM)

[
  {
    "molecule": "CN(C(=O)C1CCNCC1)[C@H](Cc1ccc2ccccc2c1)C(=O)N[C@H](Cc1ccc2ccccc2c1)C(=O)N[C@@H](Cc1ccccc1)C(N)=O [(inip) nmb b F amide] (H-[Inp][dNMe2Nal][d2Nal]F-NH2)",
    "assayEndpoint": "EC50",
    "unitInfo": "nM",
    "resultValue": 0.5
  },
  {
    "molecule": "O=C(N[C@H](Cc1ccc2ccccc2c1)C(=O)N[C@H](Cc1ccc2ccccc2c1)C(=O)NCCc1ccccc1)C1CCNCC1 [(inip) b b fem] (H-[Inp]-[d2Nal]-[d2Nal]-NHPhenethyl)",
    "assayEndpoint": "EC50",
    "unitInfo": "nM",
    "resultValue": 2.04
  },
  {
    "molecule": "NC(=O)[C@H](Cc1cccc2ccccc12)NC(=O)[C@@H](Cc1ccc2ccccc2c1)NC(=O)[C@@H](Cc1ccc2ccccc2c1)NC(=O)C1CCNCC1 [(inip) b b npA amide] (H-[Inp][d2Nal][d2Nal][1Nal]-NH2)",
    "assayEndpoint": "EC50",
    "unitInfo": "nM",
    "resultValue": 0.2
  },
  {
    "molecule": "CN(C(=O)[C@@H](Cc1ccc2ccccc2c1)NC(=O)C1CCNCC1)[C@H](Cc1ccc2ccccc2c1)C(=O)N[C@@H](Cc1ccccc1)C(N)=O [(inip) b nmb F amide] (H-[Inp][d2Nal][dNMe2Nal]F-NH2)",
    "assayEndpoint": "EC50",
    "unitInfo": "nM",
    "resultValue": 1
  },
  {
    "molecule": "NC(=O)CCN(CCc1ccccc1)C(=O)[C@@H](Cc1ccc2ccccc2c1)NC(=O)[C@@H](Cc1ccc2ccccc2c1)NC(=O)C1CCNCC1 [(inip) b b feb amide]",
    "assayEndpoint": "EC50",
    "unitInfo": "nM",
    "resultValue": 0.3
  }
]
